Target: DNA polymerase eta (Homo sapiens)
Experiment: qHTS for Inhibitors of Polymerase Eta
Conditions: recombinant Pol eta, fluorescent DNA replication assay; series mostly up to 114 µM
Among all 390,000 compounds or so, about 4,700 (1.2%) were called active. Another 4% or so got no clear call; they are omitted. The call rests on the fitted dose curve; in most records, active means well fitted inhibition curve with a large enough effect; inconclusive means small, poorly fitted or top-dose-only effect, or another doubt; inactive means no such curve, though single readings can be large or run the other way. The sample holds actives, similar compounds and a random draw of the others, so the mix is not that of the screen.
Your response should consist of one outcome taken from active, inactive

For orientation, consider the following solved cases.
**Q:** # fetch the recorded call for CCOc1ccc(NC(=O)C(=O)NCCc2csc3nc(-c4ccccc4F)nn23)cc1 here
**A:** inactive

**Q:** Please state the recorded outcome for this compound: Cn1c(=O)c2c(-c3ccccc3Br)n(Cc3ccccc3)cc2n(C)c1=O
**A:** inactive

**Q:** What outcome does the record of this test show for Cc1cc(C)c(NC(=O)CSc2nc3nccnc3c(=O)n2CCc2c[nH]c3ccccc23)c(C)c1 ?
**A:** inactive

**Q:** For O=C(CN1CCN(c2ncc(C(F)(F)F)cc2Cl)CC1)Nc1ccc2c(c1)OCO2 , what call appears in the results of this test?
**A:** inactive

**Q:** Recorded test outcome, item Cc1ccc(C(=O)O)cc1-c1ccc(/C=C2\SC(=O)N(CC(=O)Nc3ccc4c(c3)OCO4)C2=O)o1
**A:** active

**Q:** Entry Cc1cc(C(=O)N/N=C/c2ccc(O)c([N+](=O)[O-])c2)c(C)n1-c1ccc(F)cc1 : call = ?
**A:** active

***
**Q:** Called result for CCCn1c(=O)c2[nH]c(-c3ccc(OCC(=O)NCCN)cc3)nc2n(CCC)c1=O
**A:** inactive

**Q:** For this compound, state the assay outcome: Cn1c(=O)c2ccccc2n(CC(=O)Nc2ccc3c(c2)OCCO3)c1=O
**A:** inactive

**Q:** Which outcome did this test record for the compound Cc1ccccc1Nc1nn2c(=O)c3ccc(C(=O)NCCc4ccc(Cl)cc4)cc3nc2s1 ?
**A:** inactive

**Q:** Which outcome did this test record for the compound CCc1cccc(NC(=O)CSc2nccn2C)c1 ?
**A:** inactive

###

Target: DNA polymerase eta (Homo sapiens)
Test: qHTS for Inhibitors of Polymerase Eta
Details: recombinant Pol eta, fluorescent DNA replication assay; series mostly up to 114 µM
About 4,700 (1.2%) of roughly 390,000 compounds were called active. Inconclusive results (about 4%) are left out. Calls follow the shape of the dose curve; as a rule, active = well fitted inhibition curve with a large enough effect; inconclusive = small, poorly fitted or top-dose-only effect, or another doubt; inactive = no such curve, though single readings can be large or run the other way. The sample as a whole holds a higher share of actives than the screen did.
Reply using exactly one outcome from yes = active, no = inactive

Worked examples follow.
**Q:** Given CC1(C)N=C(SCc2ccccc2Cl)c2ccccc2N1 , state the outcome it received in this test.
**A:** no

**Q:** Entry Cc1cccc(NC(=O)C2CCN(C(=O)NC3CCCCC3)CC2)c1 : call = ?
**A:** no

**Q:** How did this test come out for COc1cccc(/C=N/Nc2ccc(S(=O)(=O)Nc3ccccc3C(=O)O)cc2[N+](=O)[O-])c1O ?
**A:** yes

Continuing:
**Q:** Dear colleague, could you share the recorded outcome for Fc1ccc(CSc2nc(NCc3ccccc3)c3ccccc3n2)cc1 when you have a moment?
**A:** no

**Q:** How did this test come out for COC(=O)c1ccc(Cn2c(SCC(=O)N(C)c3ccccc3)nc3ccccc32)cc1 ?
**A:** no

**Q:** In this assay, the call recorded for Cc1cccc(NC(=O)NC2(C)CCS(=O)(=O)C2)c1 (stereo unspecified) was what?
**A:** no

**Q:** Per the assay record, what outcome was assigned to Cc1cccc(NC(=O)C2CC(=O)OC23CCCC3)c1 (stereo unspecified) ?
**A:** yes

**Q:** Fill in: this test's call for CCOC(=O)c1cc2c(=O)n3ccccc3nc2n(CCCOC)c1=NC(=O)C(C)(C)Oc1ccc(Cl)cc1 is ___
**A:** no

**Q:** Please indicate how the test categorized Cc1nc2c(C(=O)NCc3ccc4c(c3)OCO4)c[nH]n2c(=O)c1Cc1ccccc1F .
**A:** yes

**Q:** Returns: the outcome recorded for Clc1ccccc1CSc1nnc(-c2ccco2)c(-c2ccco2)n1 in this assay.
**A:** yes
